ASSAY_SYSTEM: Bcr/Abl fusion protein (Homo sapiens, UniProt P00519)
Sequence (P00519 whole entry, the tested form may be a part): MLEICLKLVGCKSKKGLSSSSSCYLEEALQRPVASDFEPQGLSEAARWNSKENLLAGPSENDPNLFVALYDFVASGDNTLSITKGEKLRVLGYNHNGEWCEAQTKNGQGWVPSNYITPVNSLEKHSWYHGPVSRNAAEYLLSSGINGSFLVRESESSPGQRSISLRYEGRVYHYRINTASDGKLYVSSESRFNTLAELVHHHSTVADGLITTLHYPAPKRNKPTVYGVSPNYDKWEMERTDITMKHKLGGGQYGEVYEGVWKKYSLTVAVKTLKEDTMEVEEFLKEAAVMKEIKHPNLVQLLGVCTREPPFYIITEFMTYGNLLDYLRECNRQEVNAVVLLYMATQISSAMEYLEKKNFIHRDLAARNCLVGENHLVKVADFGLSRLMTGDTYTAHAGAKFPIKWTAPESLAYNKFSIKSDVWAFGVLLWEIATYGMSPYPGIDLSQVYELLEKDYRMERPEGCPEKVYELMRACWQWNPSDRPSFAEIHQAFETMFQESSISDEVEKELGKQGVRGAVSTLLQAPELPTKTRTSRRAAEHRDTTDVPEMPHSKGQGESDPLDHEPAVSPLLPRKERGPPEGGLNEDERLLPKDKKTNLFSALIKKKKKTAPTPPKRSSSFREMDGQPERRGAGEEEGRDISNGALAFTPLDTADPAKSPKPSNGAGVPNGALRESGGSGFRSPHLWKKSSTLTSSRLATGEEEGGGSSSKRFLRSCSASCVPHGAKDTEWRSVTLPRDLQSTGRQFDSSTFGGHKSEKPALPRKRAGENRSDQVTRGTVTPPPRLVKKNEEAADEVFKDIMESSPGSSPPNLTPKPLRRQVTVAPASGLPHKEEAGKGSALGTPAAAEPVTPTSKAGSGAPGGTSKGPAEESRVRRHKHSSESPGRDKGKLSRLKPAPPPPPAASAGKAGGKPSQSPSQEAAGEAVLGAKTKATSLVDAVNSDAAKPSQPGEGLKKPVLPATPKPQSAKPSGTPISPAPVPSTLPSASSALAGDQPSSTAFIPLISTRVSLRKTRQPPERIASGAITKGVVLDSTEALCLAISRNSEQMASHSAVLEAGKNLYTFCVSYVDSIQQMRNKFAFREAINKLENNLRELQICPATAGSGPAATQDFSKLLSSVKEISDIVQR
Sequence (P11274 whole entry, further chain, the tested form may be a part): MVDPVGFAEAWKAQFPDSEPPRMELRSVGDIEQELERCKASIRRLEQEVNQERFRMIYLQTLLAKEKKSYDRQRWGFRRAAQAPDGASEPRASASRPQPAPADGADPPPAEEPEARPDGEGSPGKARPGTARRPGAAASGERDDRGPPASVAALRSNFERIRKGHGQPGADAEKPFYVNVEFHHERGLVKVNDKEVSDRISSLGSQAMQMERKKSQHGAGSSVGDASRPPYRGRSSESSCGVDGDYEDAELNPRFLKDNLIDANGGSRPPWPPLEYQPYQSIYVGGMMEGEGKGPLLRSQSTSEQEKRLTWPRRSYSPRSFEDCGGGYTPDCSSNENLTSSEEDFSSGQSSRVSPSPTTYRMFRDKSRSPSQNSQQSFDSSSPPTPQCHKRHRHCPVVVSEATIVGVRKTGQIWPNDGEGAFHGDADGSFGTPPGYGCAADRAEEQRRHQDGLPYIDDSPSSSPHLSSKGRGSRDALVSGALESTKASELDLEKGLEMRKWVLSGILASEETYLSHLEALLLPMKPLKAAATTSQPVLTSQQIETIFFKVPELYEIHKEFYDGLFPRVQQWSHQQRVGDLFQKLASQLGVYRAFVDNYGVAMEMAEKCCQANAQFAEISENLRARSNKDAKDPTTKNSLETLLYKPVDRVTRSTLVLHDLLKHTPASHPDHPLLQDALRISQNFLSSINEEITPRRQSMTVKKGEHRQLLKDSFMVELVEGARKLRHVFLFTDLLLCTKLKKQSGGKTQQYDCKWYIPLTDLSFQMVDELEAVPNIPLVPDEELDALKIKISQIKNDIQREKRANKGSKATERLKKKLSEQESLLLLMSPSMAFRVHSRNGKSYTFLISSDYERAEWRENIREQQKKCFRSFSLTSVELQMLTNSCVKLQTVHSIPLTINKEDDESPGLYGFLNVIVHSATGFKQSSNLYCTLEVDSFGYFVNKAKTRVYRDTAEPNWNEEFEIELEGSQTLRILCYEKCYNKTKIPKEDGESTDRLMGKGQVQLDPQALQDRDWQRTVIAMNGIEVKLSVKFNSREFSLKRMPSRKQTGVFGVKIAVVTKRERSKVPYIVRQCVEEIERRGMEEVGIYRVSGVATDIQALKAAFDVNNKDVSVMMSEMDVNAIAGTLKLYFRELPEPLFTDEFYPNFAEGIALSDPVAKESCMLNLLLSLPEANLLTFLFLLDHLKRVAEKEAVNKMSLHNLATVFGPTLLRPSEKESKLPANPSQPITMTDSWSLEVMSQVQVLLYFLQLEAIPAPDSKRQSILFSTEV
PROTOCOL_SUMMARY: Inhibition of BCR fused full length human recombinant N-terminal His-tagged ABL (2 to 1130 residues) expressed in baculovirus expression system using FL-peptide 2 substrate preincubated for 10 mins followed by substrate addition measured after 60 mins by mobility shift assay
pIC50: −log10 of the molar value.
MEASURED_METRIC: pIC50

Answered examples (5):
{"columns": ["COMPOUND", "ASSAY_SYSTEM", "pIC50"],
 "data": [
  ["CCN1CCN(Cc2ccc(NC(=O)COc3ccc(-c4cccnc4)cc3)cc2C2CC2)CC1", "Bcr/Abl fusion protein (Homo sapiens, UniProt P00519)", "< 5.00"],
  ["CCN1CCC(Cc2ccc(NC(=O)COc3ccc(-c4cccnc4)cc3)cc2C(F)(F)F)CC1", "Bcr/Abl fusion protein (Homo sapiens, UniProt P00519)", "< 5.00"],
  ["CN1CCN(Cc2ccc(NC(=O)CNc3ccc(-c4ccc(NC(=O)C5CC5)nc4)cc3F)cc2C(F)(F)F)CC1", "Bcr/Abl fusion protein (Homo sapiens, UniProt P00519)", 8.00],
  ["CCN1CCN(Cc2ccc(NC(=O)CNc3ccc(-c4cccnc4)cc3)cc2C(F)(F)F)CC1", "Bcr/Abl fusion protein (Homo sapiens, UniProt P00519)", "< 5.00"],
  ["CCN1CCN(Cc2ccc(NC(=O)COc3ccc(-c4ccncc4)cc3)cc2C(F)(F)F)CC1", "Bcr/Abl fusion protein (Homo sapiens, UniProt P00519)", "< 5.00"]
]}

For the compound shown here, CCC1CCN(Cc2ccc(NC(=O)COc3ccc(-c4cccnc4)cc3)cc2C(F)(F)F)CC1 , give the reported pIC50.
< 5.00

State the recorded pIC50 for this entry: CCN1CCN(Cc2ccc(NC(=O)Cc3ccc(Oc4ccnc(NC)c4)cc3)cc2C(F)(F)F)CC1
6.24

Data request, read-out pIC50, for CCN1CCN(Cc2ccc(NC(=O)Cc3ccc(Oc4cc(NC)ncn4)cc3)cc2C(F)(F)F)CC1
< 5.00

Find the recorded pIC50 belonging to CC(C)C(=O)Nc1ccc(-c2ccc(NCC(=O)Nc3ccc(CN4CCNCC4)c(C(F)(F)F)c3)cc2)cn1 and report it.
< 5.00

For the compound shown here, O=C(CNc1ccc(-c2ccc(NC(=O)C3CC3)nc2)cc1)Nc1ccc(CN2CCNCC2)c(C(F)(F)F)c1 , give the reported pIC50.
6.68

So what does the record say about pIC50 for CC(=O)Nc1ccc(-c2ccc(NCC(=O)Nc3ccc(CN4CCNCC4)c(C(F)(F)F)c3)cc2)cn1 ?
6.06

Consider the compound CCN1CCN(Cc2ccc(NC(=O)C(C)Oc3ccc(-c4cccnc4)cc3)cc2C(F)(F)F)CC1 (stereo not drawn) and give its measured pIC50.
< 5.00

Entry CCN1CCN(Cc2ccc(NC(=O)COc3ccc(-c4cccnc4)cc3)cc2C(F)(F)F)CC1 has what pIC50?
< 5.00

Recorded pIC50 of CCN1CCN(Cc2ccc(CC(=O)Nc3ccc(Oc4cc(NC)ncn4)cc3)cc2C(F)(F)F)CC1 , please.
< 5.00
